# Target: T1, HCV bt-141-161 (Peptide 2, HCVc 141-161) (Hepatitis C virus (numbering per HCV-1), biotin (carboxy-terminal per; N-terminal per))
# T1 peptide: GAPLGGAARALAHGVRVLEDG
# Protocol Text: EIA, captured mAb + biotin peptide
Quantity Measured: Reactivity (OD 492 nm) (OD units)
Provide only the numeric value, understood in OD units.

Below: 3 binders and their reported Reactivity (OD 492 nm).
HCV 208A-741 (antibody, V domains shown) VH: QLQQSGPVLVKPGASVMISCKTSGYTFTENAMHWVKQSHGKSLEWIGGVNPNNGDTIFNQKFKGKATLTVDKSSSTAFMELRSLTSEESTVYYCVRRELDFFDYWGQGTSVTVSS VL: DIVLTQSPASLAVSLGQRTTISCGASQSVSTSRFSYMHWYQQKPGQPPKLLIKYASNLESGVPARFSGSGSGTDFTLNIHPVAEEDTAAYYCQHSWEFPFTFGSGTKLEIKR: 3.37
HCV 208B-353 (antibody, V domains shown) VH: EVQLVESGGDLVKPGGSLKLSCAASGFTFNHYGMSWVRQPPDKRLEWVATISSGGGYTYYPDSVKGRFTISRDNAKDTLSLQMSSLRSGDTAVYYCASLYGSLFAYWGQGTLVTVSA VL: DIVMTQSQKFMSTTVGDRVRVTCKASQNVGTAVAWYQQKPGQSPKLLIYSASNRYTGVPDRFTGSGSGTDFTLTITNMQSEDLADYFCQQYSTYPLTFGSGAKLEIKR: 2.47
HCV 208A-1064 (antibody, V domains shown) VH: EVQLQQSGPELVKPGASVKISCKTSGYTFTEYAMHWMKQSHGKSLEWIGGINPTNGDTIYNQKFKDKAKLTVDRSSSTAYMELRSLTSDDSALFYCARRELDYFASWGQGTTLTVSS VL: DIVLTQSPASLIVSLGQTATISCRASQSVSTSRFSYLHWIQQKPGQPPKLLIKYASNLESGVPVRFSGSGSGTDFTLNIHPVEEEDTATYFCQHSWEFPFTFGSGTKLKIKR: 3.5

Please look at the following binder next.
Field request: Reactivity (OD 492 nm) | item: HCV 208A-159 (antibody, V domains shown) VH: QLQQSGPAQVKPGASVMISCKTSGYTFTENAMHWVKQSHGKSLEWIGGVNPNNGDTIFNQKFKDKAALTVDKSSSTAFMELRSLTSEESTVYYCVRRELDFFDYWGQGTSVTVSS VL: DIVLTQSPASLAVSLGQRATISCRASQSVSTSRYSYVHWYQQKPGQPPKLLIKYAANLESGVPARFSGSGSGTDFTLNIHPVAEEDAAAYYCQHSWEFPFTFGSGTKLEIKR 3.77
